Test system: Escherichia coli TOP10;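 also: peptides expressed intracellularly from a pBAD plasmid library in pooled LB shake-flask culture, induced with 0.3% L-arabinose, DNA abundance read by NGS, three biological replicates, DESeq2 with apeglm shrinkage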
Experiment: shrunken log2 fold change of peptide-encoding DNA abundance (4.5 h post-induction vs induction); higher = less antimicrobial activity (less host growth inhibition)
Settings: time post-induction: 4.5 h; library: site-saturation at positions 5, 18, 19, 20
# binning rule on shrunken log2 fold change: lower level = under -0.1, middle level = from -0.1 up to 0.08, upper level = 0.08 and over

>  <Sequence>
RRIRKRPPRLPRPRPRPNAIPRP

>  <Label value>
upper level

$$$$
>  <Sequence>
RRIRIRPPRLPRPRPRPALPPRP

>  <Label value>
middle level

$$$$
>  <Sequence>
RRIRLRPPRLPRPRPRPYRWPRP

>  <Label value>
middle level

$$$$
>  <Sequence>
RRIRSRPPRLPRPRPRPWIGPRP

>  <Label value>
middle level

$$$$
>  <Sequence>
RRIRGRPPRLPRPRPRPPVGPRP

>  <Label value>
upper level

$$$$
>  <Sequence>
RRIRARPPRLPRPRPRPHQDPRP

>  <Label value>
lower level

$$$$
>  <Sequence>
RRIRPRPPRLPRPRPRPNKHPRP

>  <Label value>
lower level

$$$$
>  <Sequence>
RRIRERPPRLPRPRPRPIRNPRP

>  <Label value>
lower level

$$$$
>  <Sequence>
RRIRIRPPRLPRPRPRPMFQPRP

>  <Label value>
middle level

$$$$
>  <Sequence>
RRIRCRPPRLPRPRPRPQYCPRP

>  <Label value>
lower level

$$$$
>  <Sequence>
RRIRDRPPRLPRPRPRPILSPRP

>  <Label value>
lower level

$$$$
>  <Sequence>
RRIRIRPPRLPRPRPRPRYEPRP

>  <Label value>
middle level

$$$$
>  <Sequence>
RRIRERPPRLPRPRPRPSPSPRP

>  <Label value>
lower level

$$$$
>  <Sequence>
RRIRFRPPRLPRPRPRPRMLPRP

>  <Label value>
middle level

$$$$
>  <Sequence>
RRIRERPPRLPRPRPRPAYDPRP

>  <Label value>
lower level

$$$$
>  <Sequence>
RRIRWRPPRLPRPRPRPFPLPRP

>  <Label value>
lower level

$$$$
>  <Sequence>
RRIRTRPPRLPRPRPRPWERPRP

>  <Label value>
middle level

$$$$
>  <Sequence>
RRIRQRPPRLPRPRPRPNFHPRP

>  <Label value>
lower level

$$$$
>  <Sequence>
RRIRIRPPRLPRPRPRPWSGPRP

>  <Label value>
lower level

$$$$
>  <Sequence>
RRIRARPPRLPRPRPRPWDLPRP

>  <Label value>
upper level

$$$$
>  <Sequence>
RRIRMRPPRLPRPRPRPIYHPRP

>  <Label value>
lower level

$$$$
>  <Sequence>
RRIRHRPPRLPRPRPRPWCFPRP

>  <Label value>
lower level

$$$$
>  <Sequence>
RRIRDRPPRLPRPRPRPMRCPRP

>  <Label value>
upper level

$$$$
>  <Sequence>
RRIRPRPPRLPRPRPRPPLHPRP

>  <Label value>
upper level

$$$$
>  <Sequence>
RRIRCRPPRLPRPRPRPDSYPRP

>  <Label value>
lower level

$$$$
>  <Sequence>
RRIRERPPRLPRPRPRPAMWPRP

>  <Label value>
upper level

$$$$
>  <Sequence>
RRIRNRPPRLPRPRPRPYICPRP

>  <Label value>
middle level

$$$$
>  <Sequence>
RRIRFRPPRLPRPRPRPEMAPRP

>  <Label value>
upper level

$$$$
>  <Sequence>
RRIRRRPPRLPRPRPRPTPFPRP

>  <Label value>
upper level

$$$$
>  <Sequence>
RRIRMRPPRLPRPRPRPLPVPRP

>  <Label value>
upper level

$$$$
>  <Sequence>
RRIRHRPPRLPRPRPRPCYRPRP

>  <Label value>
lower level

$$$$
>  <Sequence>
RRIRMRPPRLPRPRPRPQYAPRP

>  <Label value>
middle level

$$$$
>  <Sequence>
RRIRKRPPRLPRPRPRPMELPRP

>  <Label value>
upper level

$$$$
>  <Sequence>
RRIRWRPPRLPRPRPRPDEEPRP

>  <Label value>
upper level

$$$$
>  <Sequence>
RRIRPRPPRLPRPRPRPWKLPRP

>  <Label value>
middle level

$$$$
>  <Sequence>
RRIRRRPPRLPRPRPRPMCHPRP

>  <Label value>
lower level

$$$$
>  <Sequence>
RRIRSRPPRLPRPRPRPDTYPRP

>  <Label value>
lower level

$$$$
>  <Sequence>
RRIRDRPPRLPRPRPRPDRTPRP

>  <Label value>
middle level

$$$$
>  <Sequence>
RRIRARPPRLPRPRPRPSARPRP

>  <Label value>
upper level

$$$$
>  <Sequence>
RRIRFRPPRLPRPRPRPSTMPRP

>  <Label value>
lower level

$$$$
>  <Sequence>
RRIRHRPPRLPRPRPRPMCGPRP

>  <Label value>
lower level

$$$$
>  <Sequence>
RRIRGRPPRLPRPRPRPCAIPRP

>  <Label value>
upper level

$$$$
>  <Sequence>
RRIRRRPPRLPRPRPRPVKMPRP

>  <Label value>
upper level

$$$$
>  <Sequence>
RRIRIRPPRLPRPRPRPSPHPRP

>  <Label value>
lower level

$$$$
>  <Sequence>
RRIRMRPPRLPRPRPRPAANPRP

>  <Label value>
middle level

$$$$
>  <Sequence>
RRIRQRPPRLPRPRPRPMCGPRP

>  <Label value>
upper level

$$$$
>  <Sequence>
RRIRPRPPRLPRPRPRPRWMPRP

>  <Label value>
upper level

$$$$
>  <Sequence>
RRIRIRPPRLPRPRPRPPVVPRP

>  <Label value>
middle level

$$$$
>  <Sequence>
RRIRHRPPRLPRPRPRPGDMPRP

>  <Label value>
lower level

$$$$
>  <Sequence>
RRIRGRPPRLPRPRPRPFWWPRP

>  <Label value>
upper level

$$$$
>  <Sequence>
RRIRIRPPRLPRPRPRPLTDPRP

>  <Label value>
lower level

$$$$
>  <Sequence>
RRIRHRPPRLPRPRPRPQEIPRP

>  <Label value>
lower level

$$$$
>  <Sequence>
RRIRKRPPRLPRPRPRPVWLPRP

>  <Label value>
upper level

$$$$
>  <Sequence>
RRIRDRPPRLPRPRPRPQVVPRP

>  <Label value>
middle level

$$$$
>  <Sequence>
RRIRLRPPRLPRPRPRPWQYPRP

>  <Label value>
middle level

$$$$
